Molecular target: rat Adenosine Transporter (Adot), Slc29a1 (gene 63997) (UniProt O54698)
Sequence (O54698 whole entry, looked up): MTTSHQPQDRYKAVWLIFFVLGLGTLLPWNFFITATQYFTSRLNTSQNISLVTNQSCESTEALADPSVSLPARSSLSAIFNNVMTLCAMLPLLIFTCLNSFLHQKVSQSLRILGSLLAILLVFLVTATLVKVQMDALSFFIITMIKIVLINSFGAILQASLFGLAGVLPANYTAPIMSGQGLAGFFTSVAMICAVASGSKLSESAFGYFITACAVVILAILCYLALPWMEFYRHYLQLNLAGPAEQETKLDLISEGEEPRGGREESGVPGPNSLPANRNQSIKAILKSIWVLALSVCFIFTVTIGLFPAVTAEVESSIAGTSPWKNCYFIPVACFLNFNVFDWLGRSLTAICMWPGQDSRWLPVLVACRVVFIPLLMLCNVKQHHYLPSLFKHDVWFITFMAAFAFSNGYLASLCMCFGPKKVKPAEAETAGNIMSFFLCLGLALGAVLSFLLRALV
Assay: NVS_TR_rAdoT: NovaScreen (NVS) Transporter Assay for rat Adenosine Transporter (Adot)
Inconclusive results are not listed. The source made the active and inactive calls. Rule for the calls: active = hit-call score of the fitted dose curve at least 0.9, where 1 is the maximum; inconclusive = response in the unintended direction; inactive = score below 0.9.
Return exactly one item of active, inactive

[in] Each compound tested received a call. Report the one for CC[C@H]1OC(=O)[C@H](C)[C@@H](O[C@H]2C[C@@](C)(OC)[C@@H](O)[C@H](C)O2)[C@H](C)[C@@H](O[C@@H]2O[C@H](C)C[C@H](N(C)C)[C@H]2O)[C@](C)(O)C[C@@H](C)C(=O)[C@H](C)[C@@H](O)[C@]1(C)O .
[out] active

[in] What call does the record list for Oc1ccc(Cl)cc1Cl ?
[out] inactive

[in] Answer briefly: the call reported for CCCCC(CC)COC(=O)c1ccc(C(=O)OCC(CC)CCCC)c(C(=O)OCC(CC)CCCC)c1 (centres undefined) in this assay.
[out] inactive

[in] Look up the recorded call for Cc1oc(-c2ccccc2)nc1CCOc1cccc2c1ccn2CCC(=O)O in this test.
[out] inactive

====

Target: rat Adenosine Transporter (Adot), Slc29a1 (gene 63997) (UniProt O54698)
Assay: NVS_TR_rAdoT: NovaScreen (NVS) Transporter Assay for rat Adenosine Transporter (Adot)
Records with an inconclusive call do not appear. Activity calls are given as the source filed them. How the source made its calls: active means hit-call score of the fitted dose curve at least 0.9, where 1 is the maximum; inconclusive means response in the unintended direction; inactive means score below 0.9.
Please reply with one of these outcomes: active, inactive

S=C(S)NCCNC(=S)S.[Mn+2].[S-]C([S-])=NCCN=C([S-])[S-].[Zn+2]
inactive
COc1cc2c(c(OC)c1OC)-c1ccc(OC)c(=O)cc1[C@@H](NC(C)=O)CC2
inactive
COc1ccc2cc(S(=O)(=O)N[C@H](CC(=O)N[C@H](Cc3ccc(CN4[C@H](C)CCC[C@@H]4C)cc3)C(=O)N(C)C(C)C)c3ccc4c(c3)OCO4)ccc2c1
active
S=C1NCCN1
inactive

[in] Name the outcome recorded for Cn1c(=O)c2c(ncn2C)n(C)c1=O in the assay.
[out] inactive
